Values compiled from patent US20180036441A1.

biological target: T1, MUC1 on HCT116/MUC1 cells (UniProt P15941 24-1255, limits assumed); test: FACS titration, HCT116/MUC1 cells, antibody at 500 nM
T1 construct: whole, on cells; also called MUC1 overexpressed cell line
T1 sequence (P15941 24-1255 limits assumed): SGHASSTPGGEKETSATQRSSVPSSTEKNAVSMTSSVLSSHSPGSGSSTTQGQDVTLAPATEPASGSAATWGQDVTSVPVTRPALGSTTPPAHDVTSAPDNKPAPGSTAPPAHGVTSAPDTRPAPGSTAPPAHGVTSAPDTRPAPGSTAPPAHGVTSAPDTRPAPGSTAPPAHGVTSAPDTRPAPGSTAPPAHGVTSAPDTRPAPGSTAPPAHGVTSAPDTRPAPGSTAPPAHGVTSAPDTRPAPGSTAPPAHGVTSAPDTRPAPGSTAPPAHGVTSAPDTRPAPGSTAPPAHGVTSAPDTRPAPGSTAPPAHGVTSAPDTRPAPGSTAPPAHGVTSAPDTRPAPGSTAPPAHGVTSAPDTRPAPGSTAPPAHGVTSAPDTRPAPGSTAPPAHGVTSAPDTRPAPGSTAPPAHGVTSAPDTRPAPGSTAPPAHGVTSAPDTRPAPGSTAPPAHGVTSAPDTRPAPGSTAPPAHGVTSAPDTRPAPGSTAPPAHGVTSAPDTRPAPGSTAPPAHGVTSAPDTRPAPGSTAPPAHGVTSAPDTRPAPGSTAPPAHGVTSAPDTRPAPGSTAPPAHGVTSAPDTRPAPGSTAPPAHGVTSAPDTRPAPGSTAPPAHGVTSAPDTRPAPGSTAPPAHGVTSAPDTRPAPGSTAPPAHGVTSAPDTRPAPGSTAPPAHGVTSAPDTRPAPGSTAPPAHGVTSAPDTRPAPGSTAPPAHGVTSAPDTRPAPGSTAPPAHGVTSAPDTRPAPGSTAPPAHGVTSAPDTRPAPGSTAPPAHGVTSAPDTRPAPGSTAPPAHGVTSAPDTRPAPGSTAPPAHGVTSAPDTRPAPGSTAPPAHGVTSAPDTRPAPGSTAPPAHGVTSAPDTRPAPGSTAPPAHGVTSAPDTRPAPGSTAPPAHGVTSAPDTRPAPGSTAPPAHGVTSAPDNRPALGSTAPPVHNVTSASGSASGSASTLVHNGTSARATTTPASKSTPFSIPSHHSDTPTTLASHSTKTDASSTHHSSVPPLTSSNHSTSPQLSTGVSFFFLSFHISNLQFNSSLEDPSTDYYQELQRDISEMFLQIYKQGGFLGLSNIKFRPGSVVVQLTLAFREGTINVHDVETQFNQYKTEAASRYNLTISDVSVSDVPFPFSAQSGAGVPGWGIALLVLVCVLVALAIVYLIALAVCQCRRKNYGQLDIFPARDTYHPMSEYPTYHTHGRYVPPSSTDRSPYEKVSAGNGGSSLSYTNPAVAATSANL
endpoint.name: geometric mean

[[record]]
binder = "VH3 + VL1 (antibody, V domains shown, Humanized IgG expressed in HEK293; also called humanized antibody VH3+VL1) VH: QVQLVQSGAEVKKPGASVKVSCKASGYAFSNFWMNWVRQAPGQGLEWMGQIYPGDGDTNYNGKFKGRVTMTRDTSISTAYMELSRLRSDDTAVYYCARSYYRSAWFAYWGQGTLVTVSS VL: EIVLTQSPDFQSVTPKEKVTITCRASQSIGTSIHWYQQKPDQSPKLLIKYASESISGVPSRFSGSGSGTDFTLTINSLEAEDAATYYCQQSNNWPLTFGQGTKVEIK"
result_number = 334

[[record]]
binder = "VH2 + VL1 (antibody, V domains shown, Humanized IgG expressed in HEK293; also called humanized antibody VH2+VL1) VH: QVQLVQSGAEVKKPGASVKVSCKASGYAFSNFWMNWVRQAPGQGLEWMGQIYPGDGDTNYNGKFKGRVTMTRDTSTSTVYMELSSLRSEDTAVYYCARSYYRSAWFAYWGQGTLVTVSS VL: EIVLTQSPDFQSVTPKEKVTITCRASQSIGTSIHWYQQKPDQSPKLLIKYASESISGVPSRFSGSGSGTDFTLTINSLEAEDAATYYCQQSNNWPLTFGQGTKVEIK"
result_number = 342

[[record]]
binder = "VH5 + VL1 (antibody, V domains shown, Humanized IgG expressed in HEK293; also called humanized antibody VH5+VL1) VH: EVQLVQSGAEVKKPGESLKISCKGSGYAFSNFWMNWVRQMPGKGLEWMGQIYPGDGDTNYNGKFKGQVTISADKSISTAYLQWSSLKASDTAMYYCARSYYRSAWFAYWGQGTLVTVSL VL: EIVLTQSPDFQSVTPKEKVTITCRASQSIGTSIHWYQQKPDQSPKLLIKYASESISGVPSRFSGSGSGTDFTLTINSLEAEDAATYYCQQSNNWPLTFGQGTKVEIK"
result_number = 316

[[record]]
binder = "VH2 + VL4 (antibody, V domains shown, Humanized IgG expressed in HEK293; also called humanized antibody VH2+VL4) VH: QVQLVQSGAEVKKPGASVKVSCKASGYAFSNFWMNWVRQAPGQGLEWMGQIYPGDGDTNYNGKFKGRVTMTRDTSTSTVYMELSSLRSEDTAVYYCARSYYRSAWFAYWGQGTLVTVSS VL: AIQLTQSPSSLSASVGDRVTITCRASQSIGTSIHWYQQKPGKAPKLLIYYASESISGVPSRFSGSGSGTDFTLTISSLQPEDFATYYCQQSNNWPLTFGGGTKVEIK"
result_number = 212

[[record]]
binder = "VH3 + VL4 (antibody, V domains shown, Humanized IgG expressed in HEK293; also called humanized antibody VH3+VL4) VH: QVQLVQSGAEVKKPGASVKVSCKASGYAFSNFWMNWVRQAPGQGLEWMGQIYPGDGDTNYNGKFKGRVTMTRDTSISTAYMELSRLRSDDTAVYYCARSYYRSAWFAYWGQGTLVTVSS VL: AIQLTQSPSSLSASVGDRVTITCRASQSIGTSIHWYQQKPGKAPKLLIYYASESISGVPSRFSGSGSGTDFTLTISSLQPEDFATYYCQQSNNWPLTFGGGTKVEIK"
result_number = 235

[[record]]
binder = "VH3 + VL3 (antibody, V domains shown, Humanized IgG expressed in HEK293; also called humanized antibody VH3+VL3) VH: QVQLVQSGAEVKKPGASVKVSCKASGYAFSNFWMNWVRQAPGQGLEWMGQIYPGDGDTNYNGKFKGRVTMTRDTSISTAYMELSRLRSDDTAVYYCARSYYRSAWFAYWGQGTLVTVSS VL: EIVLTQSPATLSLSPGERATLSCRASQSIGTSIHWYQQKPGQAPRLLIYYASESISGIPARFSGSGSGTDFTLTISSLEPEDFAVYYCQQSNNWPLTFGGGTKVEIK"
result_number = 148

